This listing pairs compounds with measured mass density.
- conditions: 353.15 K; Gas; Vibrating tube method
Numbers after ± are expanded uncertainties.
experimental readout: mass density

- Cc1cccc(C)c1: 0.5448 ± 0.1 kg/m3
- CCCCCCCCC: 0.4513 ± 0.1 kg/m3
- c1ccccc1: 2.69 ± 0.1 kg/m3
- Cc1ccccc1: 1.3863 ± 0.1 kg/m3

----------
- conditions: 353.15 K; Liquid; Closed cell (Static) method
experimental readout: vapor or sublimation pressure (kPa)

* O=S1(=O)CCCC1 | 0.04
* Cc1cccc(C)c1 | 15.09
* c1ccccc1 | 100
* CCCCCCCCC | 10.28
* Cc1ccccc1 | 38.4
